TEST METHOD NOTES: inhibitors of the yeast RAM network, pilot screen, dse1pr::URA3 reporter, 5-FOA selection (AID 869);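 also: 0% = DMSO wells with no growth and 100% = 10 µM 1-NA-PP1 with full growth; RAM network block rescues cells from 5-FOA so hits raise OD615 growth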
DETAILS: S. cerevisiae dse1pr::URA3 5-FOA growth, OD615, 2 d; at 10 µM; active compounds read high; strain carries analog-sensitive mutant Cbk1 kinase
Active and inactive are the calls of the source.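 The calls were made as follows: active = inhibition over a set limit, the all-compound mean plus 3 SD, in both replicate runs; inconclusive = over that limit in just one replicate run; inactive = at or under that limit in both runs.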
Exercise: for every item that follows, state its recorded inhibition.

1) CCc1ccccc1N1CSC2=C(C#N)C(c3ccccc3F)CC(=O)N2C1 (centres undefined) = 0.905% (inactive)
2) CCCc1c(C(=O)OCC)[nH]c2c1C(=O)CCC2 = 1.46% (inactive)
3) COc1ccc(C2CC3CC(c4ccccc4)N2O3)cc1 (centres undefined) = 2.11% (inactive)
4) CCOC(=O)C1=C(C)NC2=C(C(=O)CCC2)C1c1cc(OC)ccc1OC (centres undefined) = 1.73% (inactive)
5) CCCCn1ccc(=O)c2c(C(F)(F)F)nccc21 = 1.19% (inactive)

Provide the reported inhibition of each entry below, same order.
1. Cn1cnc2c1c(=O)n(Cc1ccccc1)c(=O)n2C
2. O=C(C1CCN(S(=O)(=O)c2ccc(F)cc2)CC1)N1CC=C(c2ccccc2)CC1
3. N#Cc1nc(COc2ccccc2F)oc1NCc1ccc(F)cc1

["3.59% (inactive)", "1.03% (inactive)", "0.39% (inactive)"]

Provide the reported inhibition of each entry below, same order.
1. Cc1c2cnn(-c3ccccc3)c(=O)c2c(C)n1CCCC(=O)N1CCN(C)CC1
2. Cc1ccc2oc(=O)c3cc(C(=O)NCc4ccco4)sc3c2c1
3. Cc1cccc(OCCSc2cc(C)nc(N)n2)c1
4. CCOC(=O)N1CCN(C(=O)Cn2ncc3ccccc32)CC1
5. COc1ccc(Br)cc1CNC(=O)C1CCC(=O)N1C(C)C (centres undefined)

1: 1.86% (inactive); 2: 3.86% (inactive); 3: -0.215% (inactive); 4: 3.38% (inactive); 5: 1.99% (inactive)

Provide the reported inhibition of each entry below, same order.
1. O=C(CC12CC3CC(CC(C3)C1)C2)N1CCOCC1
2. COc1ccccc1NC(=O)CSc1nnnn1C
3. CCOC(=O)C1CCN(C(=O)CN(c2ccc(OC)cc2)S(=O)(=O)c2c(C)nn(C)c2C)CC1

1: 1.39% (inactive); 2: 1.37% (inactive); 3: 1.46% (inactive)

====

TEST METHOD NOTES: RAM signaling pathway blockade in yeast – S. cerevisiae, Pdr1DBD-CYC8 efflux-inhibited sensitized strain, primary screen (AID 1298);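 also: 0% = DMSO untreated cells without growth and 100% = 10 µM 1-NA-PP1 full growth; higher means more yeast growth rescued from 5-FOA killing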
DETAILS: S. cerevisiae cbk1-as DSE1-URA3 strain, 5-FOA growth OD615, 2 d; at 50 µM; active compounds read high
Tick YES if RAM network inhibition is 3% or greater. Tick NO if RAM network inhibition is less than 3%.

1. CCCCn1c(CN2CCOCC2)nc2c1c(=O)n(C)c(=O)n2C = NO
2. Nc1[nH]nc2nc(N3CCOCC3)nc(-c3ccccc3)c12 = NO
3. CCOc1cc(-c2cc(N)n[nH]2)cc(OCC)c1OCC = NO
4. Cc1cccc(NC(=O)C2CCN(S(=O)(=O)c3cccc4cccnc34)CC2)c1 = NO
5. CCN(c1ccccc1)S(=O)(=O)c1ccc(N)cc1 = NO

# check: RAM network inhibition of `O=C(CCCc1ccccc1)NCc1cn2ccsc2n1` is greater than or equal to 3% YES

# check: RAM network inhibition of `CN(Cc1ccccc1)c1nc2c(c(=O)n(C)c(=O)n2C)n1CCSc1ncccn1` is greater than or equal to 3% YES

# check: RAM network inhibition of `CCOc1ccc(-c2nnc3ccc(SCC(=O)N4CCCCC4)nn23)cc1` is greater than or equal to 3% NO

# check: RAM network inhibition of `Cc1csc2ncc(C(=O)Nc3ccc4c(c3)OCCO4)c(=O)n12` is greater than or equal to 3% YES

# check: RAM network inhibition of `Cc1cccc(CCNC(=O)c2nnc(Cc3ccc(Cl)cc3)o2)c1` is greater than or equal to 3% YES

# check: RAM network inhibition of OC(CNCc1ccco1)COc1ccccc1 (configuration not stated) is greater than or equal to 3% NO

# check: RAM network inhibition of `CN(CC(=O)NC1CCCCCCC1)S(=O)(=O)c1cccc2cccnc12` is greater than or equal to 3% NO
